Recorded measurements of Cytotoxicity CC50 HeLa(Ohio), one per entry
- Test system: HeLa (Ohio strain)cells
- assay.explanation: Cytotoxicity (MTT, without virus), HeLa(Ohio)
- measurement.context: HeLa(Ohio), no virus, incubated for 4 days

CCn1c(-c2ccc(Br)s2)cc(=O)c2cc(C(C)C)ccc21; >5 µg/mL
COc1ccc(-c2c(C)c(=O)c3cc(OCC(C)C)c(C)cc3n2C)cc1C; >4 µg/mL
CC(C)c1ccc2c(c1)c(=O)cc(-c1ccco1)n2C; >20 µg/mL
Cc1c(-c2ccccc2)n(-c2ccccc2F)c2ccc(C(C)C)cc2c1=O; >1 µg/mL
COc1ccc(-n2c(-c3ccccc3)c(C)c(=O)c3cc(C(C)C)ccc32)cc1; >2.5 µg/mL
Cc1c(-c2ccccc2)n(-c2ccc(F)cc2)c2ccc(C(C)C)cc2c1=O; >2 µg/mL

Ask: Data request, read-out Cytotoxicity CC50 HeLa(Ohio), for `Cc1cc2c(cc1OCC(C)C)c(=O)c(C)c(-c1ccccc1)n2C`
Result: >5 µg/mL

Ask: Data request, read-out Cytotoxicity CC50 HeLa(Ohio), for `CCc1ccc2c(c1)Cc1c-2n(CC)c2ccc(C(C)C)cc2c1=O`
Result: >1 µg/mL

Ask: Data request, read-out Cytotoxicity CC50 HeLa(Ohio), for `CCn1c(-c2ccc(C)s2)cc(=O)c2cc(C(C)C)ccc21`
Result: >10 µg/mL
